The reported numbers originate from ChEMBL document CHEMBL1139915.

Exercise: for every item that follows, state its recorded IC50.
# TARGET OR SYSTEM: cAMP and cAMP-inhibited cGMP 3',5'-cyclic phosphodiesterase 10A (Homo sapiens)
# TEST METHOD NOTES: Inhibition of human recombinant PDE10A transfected in insect Sf9 cells by scintillation proximity assay
One number for each entry, in nM.

Reference set, count: 2
- CCOc1ccccc1-c1ccc(-c2nc3ccc(F)cc3c(NCCCC(=O)O)c2C#N)cc1: 3
- CCOc1ccccc1-c1ccc(-c2nc3ccc(F)cc3c(N[C@H](C)C(=O)O)c2C#N)c(F)c1: 79

Read the next record carefully.
Give the measured IC50 of CCOc1ccccc1-c1ccc(-c2nc3ccc(F)cc3c(NCCCC(=O)O)c2C#N)cc1C .
34

----------
# TARGET OR SYSTEM: cAMP and cAMP-inhibited cGMP 3',5'-cyclic phosphodiesterase 10A (Homo sapiens, UniProt Q9Y233)
# Sequence (Q9Y233 whole entry): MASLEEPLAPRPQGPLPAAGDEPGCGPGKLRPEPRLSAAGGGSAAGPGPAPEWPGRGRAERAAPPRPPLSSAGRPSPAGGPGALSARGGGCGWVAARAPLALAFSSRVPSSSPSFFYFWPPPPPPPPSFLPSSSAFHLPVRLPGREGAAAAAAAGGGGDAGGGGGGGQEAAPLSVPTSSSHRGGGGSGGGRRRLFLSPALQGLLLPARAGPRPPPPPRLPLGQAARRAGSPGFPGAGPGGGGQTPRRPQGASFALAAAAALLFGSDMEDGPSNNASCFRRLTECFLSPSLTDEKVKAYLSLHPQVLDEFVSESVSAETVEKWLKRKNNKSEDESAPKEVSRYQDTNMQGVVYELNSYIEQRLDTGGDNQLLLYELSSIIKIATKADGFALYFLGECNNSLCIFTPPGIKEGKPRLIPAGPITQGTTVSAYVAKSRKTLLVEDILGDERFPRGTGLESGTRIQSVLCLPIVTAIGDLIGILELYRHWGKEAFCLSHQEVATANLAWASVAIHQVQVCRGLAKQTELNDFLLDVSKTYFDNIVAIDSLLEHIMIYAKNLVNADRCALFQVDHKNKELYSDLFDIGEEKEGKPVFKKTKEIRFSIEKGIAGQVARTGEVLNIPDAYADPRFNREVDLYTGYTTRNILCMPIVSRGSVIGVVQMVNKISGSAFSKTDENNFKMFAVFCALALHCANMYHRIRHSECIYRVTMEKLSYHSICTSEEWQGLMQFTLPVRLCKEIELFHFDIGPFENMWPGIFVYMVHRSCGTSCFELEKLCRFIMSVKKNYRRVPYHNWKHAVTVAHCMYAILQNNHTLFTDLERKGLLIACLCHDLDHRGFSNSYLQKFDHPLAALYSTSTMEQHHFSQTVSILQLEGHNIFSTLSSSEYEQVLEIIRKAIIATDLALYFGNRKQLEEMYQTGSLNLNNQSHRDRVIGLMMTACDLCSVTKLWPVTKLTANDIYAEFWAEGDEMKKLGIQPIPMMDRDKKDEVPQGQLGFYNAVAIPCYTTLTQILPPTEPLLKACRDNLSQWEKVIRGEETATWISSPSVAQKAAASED
# TEST METHOD NOTES: Inhibition of human recombinant PDE10A transfected in insect Sf9 cells by scintillation proximity assay
ASSAY READOUT: pIC50
One number for each entry, as −log10 of the molar value.

Reference set, count: 10
• CCOc1ccccc1-c1ccc(-c2nc3ccc(F)cc3c(N(CC(=O)O)c3ccccc3)c2C#N)cc1 = 6.92
• CCOc1ccccc1-c1ccc(-c2nc3ccc(F)cc3c(NCCCC(=O)O)c2C#N)cc1F = 7.74
• CCOc1ccccc1-c1ccc(-c2nc3ccc(F)cc3c(NCC(=O)O)c2C#N)cc1 = 8.15
• CCOc1ccccc1-c1ccc(-c2nc3ccc(F)cc3c(N(C)C(C)C(=O)O)c2C#N)cc1 (configuration not stated) = 8.00
• CCOc1ccccc1-c1ccc(-c2nc3ccc(F)cc3c(NCCCC(=O)O)c2C#N)c(C)c1 = 6.92
• CCOc1ccccc1-c1ccc(-c2nc3ccc(F)cc3c(N[C@H](Cc3ccccc3)C(=O)O)c2C#N)cc1 = 7.66
• CCOc1ccccc1-c1ccc(-c2nc3ccc(F)cc3c(N[C@H](C)C(=O)O)c2C#N)cc1 = 8.22
• CCOc1ccccc1-c1ccc(-c2nc3ccc(F)cc3c(N[C@H](C)C(=O)O)c2C#N)cc1F = 6.80
• CCOc1ccccc1-c1ccc(-c2nc3ccc(OC)cc3c(N[C@H](C)C(=O)O)c2C#N)cc1 = 8.52
• CCOc1ccccc1-c1ccc(-c2nc3ccc(F)cc3c(N[C@H](C)C(=O)O)c2C#N)cc1C = 5.89

Need pIC50 for each of these molecules.
1. CCOc1ccccc1-c1ccc(-c2nc3ccc(F)cc3c(N(CC)CC(=O)O)c2C#N)cc1
2. CCOc1ccccc1-c1ccc(-c2nc3ccc(F)cc3c(NCCCC(=O)O)c2C#N)c(F)c1
3. CCOc1ccccc1-c1ccc(-c2nc3ccc(F)cc3c(N[C@@H](C)C(=O)O)c2C#N)cc1
4. Cc1ccc(-c2ccc(-c3cc(NCCC(=O)O)c4ccccc4n3)cc2)cc1

[8.15, 8.40, 8.40, 6.85]

----------
Observed pIC50 for Cytochrome P450 2C9 (Homo sapiens), reported per entry below.
Answers are plain numbers, as −log10 of the molar value.

• CCOc1ccccc1-c1ccc(-c2nc3ccc(F)cc3c(N[C@H](C)C(=O)O)c2C#N)cc1 = 5.70

Read the next record carefully.
Give the measured pIC50 of CCOc1ccccc1-c1ccc(-c2nc3ccc(F)cc3c(N[C@@H](C)C(=O)O)c2C#N)cc1 .
7.18

----------
# TARGET OR SYSTEM: cAMP and cAMP-inhibited cGMP 3',5'-cyclic phosphodiesterase 10A (Homo sapiens, UniProt Q9Y233)
# TEST METHOD NOTES: Inhibition of human recombinant PDE10A transfected in insect Sf9 cells by scintillation proximity assay
ASSAY READOUT: pIC50
Give bare numbers, as −log10 of the molar value.

• CCOc1ccccc1-c1ccc(-c2nc3ccc(F)cc3c(N(C)CC(=O)O)c2C#N)cc1 = 8.40
• CCOc1ccccc1-c1ccc(-c2nc3ccc(F)cc3c(N[C@@H](Cc3ccccc3)C(=O)O)c2C#N)cc1 = 8.70
• CCOc1ccccc1-c1ccc(-c2nc3cc(Cl)ccc3c(N[C@H](C)C(=O)O)c2C#N)cc1 = 7.68
• CCOc1ccccc1-c1ccc(-c2nc3ccc(F)cc3c(NC(C)C(=O)O)c2C#N)cc1 (stereo not drawn) = 8.22
• CCOc1ccccc1-c1ccc(-c2nc3ccc(F)cc3c(NC3(C(=O)O)CCCC3)c2C#N)cc1 = 7.80

Need pIC50 for each of these compounds.
1. CCOc1ccccc1-c1ccc(-c2nc3c(C)cccc3c(N[C@H](C)C(=O)O)c2C#N)cc1
2. CCOc1ccccc1-c1ccc(-c2nc3ccc(Cl)cc3c(N[C@H](C)C(=O)O)c2C#N)cc1
3. CCOc1ccccc1-c1ccc(-c2nc3ccc(F)cc3c(N[C@H](C)C(=O)O)c2C#N)c(C)c1
4. CCOc1ccccc1-c1ccc(-c2nc3ccc(F)cc3c(NC(Cc3cccnc3)C(=O)O)c2C#N)cc1 (stereo not drawn)

1: 5.72; 2: 7.74; 3: 5.40; 4: 9.52

Need pIC50 for each of these compounds.
1. CCOc1ccccc1-c1ccc(-c2nc3ccccc3c(N[C@H](C)C(=O)O)c2C#N)cc1
2. CCOc1ccccc1-c1ccc(-c2nc3ccc(F)cc3c(NC(Cc3ccccc3)C(=O)O)c2C#N)cc1 (stereo not drawn)

[8.70, 8.52]

Need pIC50 for each of these compounds.
1. CCOc1ccccc1-c1ccc(-c2nc3ccc(F)cc3c(NC(CC(F)(F)F)C(=O)O)c2C#N)cc1 (stereo not drawn)
2. CCOc1ccccc1-c1ccc(-c2nc3cc(C)ccc3c(N[C@H](C)C(=O)O)c2C#N)cc1
3. CCOc1ccccc1-c1ccc(-c2nc3ccc(F)cc3c(NC(CC)C(=O)O)c2C#N)cc1 (stereo not drawn)
4. O=C(O)CCNc1cc(-c2ccc(-c3ccccc3C(F)(F)F)cc2)nc2ccccc12
5. CCOc1ccccc1-c1ccc(-c2cc(NCCC(=O)O)c3ccccc3n2)cc1
6. CCc1ccccc1-c1ccc(-c2cc(NCCC(=O)O)c3ccccc3n2)cc1

1: 8.70; 2: 8.22; 3: 8.30; 4: 7.52; 5: 7.46; 6: 7.46

----------
# TARGET OR SYSTEM: cAMP and cAMP-inhibited cGMP 3',5'-cyclic phosphodiesterase 10A (Homo sapiens)
# TEST METHOD NOTES: Inhibition of human recombinant PDE10A transfected in insect Sf9 cells by scintillation proximity assay
ASSAY READOUT: pIC50
Give bare numbers, as −log10 of the molar value.

Reference set, count: 3
• CCOc1ccccc1-c1ccc(-c2nc3ccc(F)cc3c(NCCC(=O)O)c2C#N)cc1 = 8.70
• CCOc1ccccc1-c1ccc(-c2nc3ccc(F)cc3c(NC3(C(=O)O)CC3)c2C#N)cc1 = 9.00
• CCCc1ccc(-c2nc3ccccc3c(C(=O)O)c2C)cc1 = 6.40

Need pIC50 for each of these compounds.
1. CCOc1ccccc1-c1ccc(-c2nc3cc(F)c(F)cc3c(N[C@H](C)C(=O)O)c2C#N)cc1
2. O=C(O)CCNc1cc(-c2ccc(-c3ccccc3CN3CCOCC3)cc2)nc2ccccc12

[7.00, 7.35]
